Cited source: ChEMBL document CHEMBL1201862

test system: MCF7; assay: NCI tumour cell line growth inhibition, 48 h
The source made the active and inactive calls. Cut-off read from the data, not from the text of the source: active = GI50 up to about 1.1 µM and inactive = higher.
Hi there, I'd appreciate the recorded GI50 for every entry that follows.

Recorded GI50, per entry:
CSc1c(C#N)c2n(c3ccccc13)c1ccccc1[n+]2C :: 35.6 µM (inactive)
CCCCCCCCCCCC(=O)N(CCCCCCCCC)CC(O)C(O)C(OC1OC(CO)C(O)C(O)C1O)C(O)CO (stereo not given) :: 35.8 µM (inactive)
Cc1nc(Cl)c(Cl)c(Cl)n1 :: 0.575 µM (active)
Cc1c2c(c(C)c3c4c(oc13)CCCC4)C=NCC2 :: 16.1 µM (inactive)

Below: the item to evaluate.
Please report the recorded GI50 for Cc1cc(C)c2c(n1)S(=O)(=O)N(CCCN1CCN(c3cccc(C(F)(F)F)c3)CC1)c1c-2nn(C)c1C .
38.5 µM (inactive)

###

tested on: MCF7; assay: NCI tumour cell line growth inhibition, 48 h
Activity calls are given as the source filed them. Rule as the data show it: active = GI50 up to about 1.1 µM and inactive = higher.
value-type: GI50

Solved entries (count: 6):
CCOC(=O)C(Cc1ccc2c(c1)CCC2)(Cc1ccc2c(c1)CCC2)C(=O)OCC :: 52.6 µM (inactive)
Cc1ccc(C(=O)N/N=C(\N=N\c2cccc(C)c2)c2ccc(N(CCC#N)CCC#N)cc2C)cc1 :: 67.5 µM (inactive)
Clc1nncc2sc(-c3ccccc3)nc12 :: 25.5 µM (inactive)
O=C1c2ccccc2C(=O)c2nn(N=P(CP(=Nn3nc4c(n3)C(=O)c3ccccc3C4=O)(c3ccccc3)c3ccccc3)(c3ccccc3)c3ccccc3)nc21 :: > 100 µM (inactive)
COc1ccc(N2C=Nn3c(nc4sc5c(c4c3=O)CCCC5)C2)cc1 :: > 100 µM (inactive)
O=P1(O)C=CC2(CCCC2)O1 :: > 100 µM (inactive)

Report GI50 for every entry below.
1. CCP(=S)(CC)CCl
2. CNC(=O)CCCNC(=O)CCCC(=O)OC
3. O=C(Nc1nn(C(=O)c2ccc(Cl)cc2)c(=O)s1)c1ccc(Cl)cc1

["> 100 µM (inactive)", "> 100 µM (inactive)", "> 100 µM (inactive)"]

Please give GI50, item by item, for the list that follows.
1. COc1cccc(/C=N/n2c(Cc3ccc(Cl)cc3)n[nH]c2=O)c1
2. Cn1c(-c2ccccc2)cc(-c2cccs2)c1-c1ccsc1

["29.9 µM (inactive)", "47.4 µM (inactive)"]

###

Please provide measured GI50 for the entries that follow.
tested on: KM12; experiment: NCI tumour cell line growth inhibition, 48 h
Active and inactive are the calls of the source. No stated cut-off is given here; in the data, active = GI50 up to about 1.1 µM and inactive = higher.

# count of solved cases: 4
Nc1nc(O)c2c(n1)NCN(c1ccc(S(N)(=O)=O)cc1)C2 :: > 100 µM (inactive)
COc1cccc(C2SCc3nc4ccccc4n32)c1 (stereo not given) :: 56.4 µM (inactive)
CC(C)NCC(O)c1cc(OCc2ccccc2)c(OCc2ccccc2)cc1NC(=O)CCC(=O)O (stereo not given) :: 4.28 µM (inactive)
O=C(/C=C/c1ccccc1)C[C@@H](O)C[C@@H]1CC=CC(=O)O1 :: 4.67 µM (inactive)

Shift focus to the following entry.
Could you tell me which GI50 is on file for Nc1ncnc2c1ncn2[C@@H]1O[C@H](C(=O)O)[C@@H](O)[C@H]1O ?
> 100 µM (inactive)

###

Hi there, I'd appreciate the recorded GI50 for every entry that follows.
tested on: RXF 393; assay: NCI tumour cell line growth inhibition, 48 h
Calls of active or inactive are those of the source. Cut-off read from the data, not from the text of the source: active = GI50 up to about 1.1 µM and inactive = higher.

CC1=C(C(=O)NNC(=O)C[N+](C)(C)C)CC(C(=O)NNC(=O)C[N+](C)(C)C)=C(C)N1 :: > 100 µM (inactive)

Give GI50 for all compounds that follow.
1. OC[C@H]1CCCC1O (some centres undefined)
2. O=C1Oc2ccccc2N/C1=C/C(=O)c1ccc(Cl)cc1
3. Nc1n[nH]c2nc3ccc(C(F)(F)F)cc3nc12

["> 100 µM (inactive)", "> 100 µM (inactive)", "16.4 µM (inactive)"]
